Measured values drawn from ChEMBL document CHEMBL1155335 for this set.

Ratio EC50 overview
- Organism: Homo sapiens
- measurement-protocol: Selectivity ratio, EC50 for human beta-1 adrenoceptor to EC50 for human beta2 adrenoceptor
observation-type: Ratio EC50

                                    molecule   val
 0  CC(C)(Cc1ccc(NC(=O)CCCNC(=O)C(N)CCCN)cc1)NCC(O)c1ccc(O)c2c1OCC(=O)N2 (configuration not stated)   4.4
 1  CC(C)(Cc1ccc(NC(=O)CCCNC(=O)C[N+](C)(C)C)cc1)NCC(O)c1cc(O)cc2c1OCC(=O)N2 (configuration not stated)   2.4
 2  CN1CCN(CC(=O)NCCCC(=O)Nc2ccc(CC(C)(C)NCC(O)c3ccc(O)c4c3OCC(=O)N4)cc2)CC1 (configuration not stated)   4.8
 3  CC(C)(Cc1ccc(NC(=O)CCCNC(=O)C[N+](C)(C)C)cc1)NCC(O)c1ccc(O)c2c1OCC(=O)N2 (configuration not stated)   3.5
 4  CC(C)(Cc1ccc(NC(=O)CCCNC(=N)N)cc1)NCC(O)c1ccc(O)c2c1OCC(=O)N2 (configuration not stated)   1.8
 5  CC(C)(Cc1ccc(NC(=O)CCCNCCCS(=O)(=O)O)cc1)NCC(O)c1ccc(O)c2c1OCC(=O)N2 (configuration not stated)   5.5
 6  CC(C)(Cc1ccc(NC(=O)CCCNC(=O)CN)cc1)NCC(O)c1ccc(O)c2c1OCC(=O)N2 (configuration not stated)   3.8
 7  CC(C)(Cc1ccc(NC(=O)CCCN)cc1)NCC(O)c1cc(O)cc2c1OCC(=O)N2 (configuration not stated)   1.2
 8  CC(C)(Cc1ccc(NC(=O)CCCN)cc1)NCC(O)c1ccc(O)c2c1OCC(=O)N2 (configuration not stated)   3.1
 9  CN(C)CC(=O)NCCCC(=O)Nc1ccc(CC(C)(C)NCC(O)c2ccc(O)c3c2OCC(=O)N3)cc1 (configuration not stated)  10.6
10  CC(C)(Cc1ccc(NC(=O)CCCNC(=N)N)cc1)NCC(O)c1cc(O)cc2c1OCC(=O)N2 (configuration not stated)   4.4
11  CC(C)(Cc1ccc(NC(=O)CCCNC(=O)CCN)cc1)NCC(O)c1ccc(O)c2c1OCC(=O)N2 (configuration not stated)   5.1

###

EC50, Beta-1 adrenergic receptor (Homo sapiens): measured values
observation-type: EC50 (µM)

                                   molecule  observation_type  result_unit     val
0  CC(C)(Cc1ccc(NC(=O)CCCN=C(N)N)cc1)NCC(O)c1cc(O)cc2c1OCC(=O)N2 (centres undefined)              EC50           µM   0.018
1  CC(C)(Cc1ccc(NC(=O)CCCNC(=N)N)cc1)NCC(O)c1ccc(O)c2c1OCC(=O)N2 (centres undefined)              EC50           µM  0.0018
2  CC(C)(Cc1ccc(NC(=O)CCCNC(=O)C(N)CCCN)cc1)NCC(O)c1ccc(O)c2c1OCC(=O)N2 (centres undefined)              EC50           µM   0.024
3  CC(C)(Cc1ccc(NC(=O)CCCNC(=O)CCN)cc1)NCC(O)c1ccc(O)c2c1OCC(=O)N2 (centres undefined)              EC50           µM  0.0046
